experiment: acute hypercalcemic action (serum-calcium) in rats; assay type: in vivo, rat; details: dose ratio test substance/calcitriol for comparable hypercalcemic action; one-time subcutaneous administration, male rats
Please respond with reported DR Ca for every item in the list.
Give bare numbers.

Use these answered entries as a reference point.
molecule=C=C1/C(=C\C=C2/CCC[C@]3(C)[C@@H]([C@H](C)/C=C/CCC4(C(C)=O)CC4)CC[C@@H]23)C[C@@H](O)C[C@@H]1O test_readout="DR Ca" observed_result=20
molecule=C=C1/C(=C\C=C2/CCC[C@]3(C)[C@@H]([C@H](C)/C=C/CC4(C(C)=O)CC4)CC[C@@H]23)C[C@@H](O)C[C@@H]1O test_readout="DR Ca" observed_result=30

Next, consider the following molecule.
stdin: Note DR Ca for the molecule shown: C=C1/C(=C\C=C2/CCC[C@]3(C)[C@@H]([C@H](C)/C=C/[C@@H](O)C4(/C=C/CC)CC4)CC[C@@H]23)C[C@@H](O)C[C@@H]1O [Compound 221b]
stdout: 10

* * *

Please respond with reported DR HL 60 for every item in the list.
tested on: HL 60 cells; assay: differentiation induction of HL 60 cells to macrophages (NBT reduction); assay type: cell-based, human; settings: dose ratio test substance/calcitriol for comparable semi-maximum differentiation induction; 96 hours incubation
Give bare numbers.

molecule="C=C1/C(=C\\C=C2/CCC[C@]3(C)[C@@H]([C@H](C)/C=C/[C@@H](O)CCC4(C(=O)CCCC)CC4)CC[C@@H]23)C[C@@H](O)C[C@@H]1O [Compound 182b]" subject_of_test="HL 60 cells" observed_result=18

Each molecule below has a reported value. Please supply its DR HL 60.
1. C=C1C(=CC=C2CCCC3(C)C2CCC3C(C)C(O)CCCC2(C(=O)CCC)CC2)CC(O)CC1O (stereo not drawn)
2. C=C1/C(=C\C=C2/CCC[C@]3(C)[C@@H]([C@H](C)/C=C/[C@@H](O)C4(/C=C/CC)CC4)CC[C@@H]23)C[C@@H](O)C[C@@H]1O [Compound 221b]
3. C=C1/C(=C\C=C2/CCC[C@]3(C)[C@@H]([C@H](C)/C=C/[C@@H](O)C4(CC)CC4)CC[C@@H]23)C[C@@H](O)C[C@@H]1O [Compound 214b]
4. C=C1/C(=C\C=C2/CCC[C@]3(C)[C@@H]([C@H](C)/C=C/[C@@H](O)C4(CCCCCC)CC4)CC[C@@H]23)C[C@@H](O)C[C@@H]1O [Compound 231b]
5. C=C1C(=CC=C2CCCC3(C)C2CCC3C(C)C=CCC2(C(=O)CCCCC)CC2)CC(O)CC1O (stereo not drawn)

stdout:
[2, 0.1, 0.1, 2, 9]

* * *

test: acute hypercalcemic action (serum-calcium) in rats; assay type: in vivo, rat; conditions: dose ratio test substance/calcitriol for comparable hypercalcemic action; one-time subcutaneous administration, male rats
Please respond with reported DR Ca for every item in the list.

Each molecule below has a reported value. Please supply its DR Ca.
1. C=C1/C(=C\C=C2/CCC[C@]3(C)[C@@H]([C@H](C)/C=C/[C@@H](O)CCC4(C(=O)CCCC)CC4)CC[C@@H]23)C[C@@H](O)C[C@@H]1O [Compound 182b]
2. C=C1/C(=C\C=C2/CCC[C@]3(C)[C@@H]([C@H](C)/C=C/[C@H](O)C4(CC)CC4)CC[C@@H]23)C[C@@H](O)C[C@@H]1O [Compound 214a]
3. C=C1/C(=C\C=C2/CCC[C@]3(C)[C@@H]([C@H](C)/C=C/[C@@H](O)C4(CC)CC4)CC[C@@H]23)C[C@@H](O)C[C@@H]1O [Compound 214b]

stdout:
>100
>>1
>1
